The values you see were collected from PubChem BioAssay (EPA / NIEHS).

TARGET_OR_TEST_SYSTEM: Cellular tumor antigen p53 (Homo sapiens) (UniProt P04637)
Sequence (P04637 whole entry, looked up): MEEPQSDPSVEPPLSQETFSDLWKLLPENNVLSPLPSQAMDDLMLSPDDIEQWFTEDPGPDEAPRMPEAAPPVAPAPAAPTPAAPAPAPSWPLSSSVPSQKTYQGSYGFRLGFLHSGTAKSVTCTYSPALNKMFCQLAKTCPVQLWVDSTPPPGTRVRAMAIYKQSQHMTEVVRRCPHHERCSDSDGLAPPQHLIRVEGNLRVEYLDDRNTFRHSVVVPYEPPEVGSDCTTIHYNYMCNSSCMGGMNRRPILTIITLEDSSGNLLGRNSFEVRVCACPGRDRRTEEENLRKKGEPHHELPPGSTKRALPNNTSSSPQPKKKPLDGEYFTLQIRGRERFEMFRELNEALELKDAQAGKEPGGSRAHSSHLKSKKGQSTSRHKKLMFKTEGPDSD
PROCEDURE_DETAILS: TOX21_p53_BLA_p4_ratio: Tox21 HCT-116 p53 Agonism Beta-lactamase Assay, Ratio, Phase 4 (AID 2283601)
Inconclusive results are not listed. Activity calls are given as the source filed them. How the source made its calls: active means hit-call score of the fitted dose curve at least 0.9, where 1 is the maximum; inconclusive means response in the unintended direction; inactive means score below 0.9.
Choose the fitting class; nothing outside active, inactive is accepted.

What did this assay record as the result for "CCCN(CCC)c1c([N+](=O)[O-])cc(C(F)(F)F)c(N)c1[N+](=O)[O-]" ?
active

Test call, this compound: "CCOC(=O)COc1cc(-n2ncc(C(F)(F)F)c(C)c2=O)c(F)cc1Cl"
inactive

Could you check what this test reported for "CC(=O)[C@H]1CC[C@H]2[C@@H]3CCC4=CC(=O)CC[C@]4(C)[C@H]3CC[C@]12C" ?
inactive

What is the recorded call for this compound in the test? "CCOC(=O)NCCOc1ccc(Oc2ccccc2)cc1"
inactive

Call for entry "C#CCOC(=O)[C@@H](C)Oc1ccc(Oc2ncc(Cl)cc2F)cc1" :
inactive

Assay outcome for "O=C(c1ccc(O)cc1O)c1ccc(O)cc1O" : what was it?
inactive

In this assay, the call recorded for CC1(C)C(C=C(Cl)Cl)C1C(=O)OCc1cccc(Oc2ccccc2)c1 (stereo not given) was what?
inactive

Assay result, entry "CC(=O)S[C@@H]1CC2=CC(=O)CC[C@]2(C)[C@H]2CC[C@@]3(C)[C@@H](CC[C@@]34CCC(=O)O4)[C@H]12" — outcome?
inactive

// return assay outcome for "CCCOC(=O)c1ccc(C(=O)OCCC)nc1"
inactive

Dear colleague, could you share the recorded outcome for "COc1nc(C)nc(NC(=O)NS(=O)(=O)c2ccccc2OCCCl)n1" when you have a moment?
inactive

###

TARGET_OR_TEST_SYSTEM: Bile acid receptor (Homo sapiens) (UniProt Q96RI1)
Sequence (Q96RI1 whole entry, looked up): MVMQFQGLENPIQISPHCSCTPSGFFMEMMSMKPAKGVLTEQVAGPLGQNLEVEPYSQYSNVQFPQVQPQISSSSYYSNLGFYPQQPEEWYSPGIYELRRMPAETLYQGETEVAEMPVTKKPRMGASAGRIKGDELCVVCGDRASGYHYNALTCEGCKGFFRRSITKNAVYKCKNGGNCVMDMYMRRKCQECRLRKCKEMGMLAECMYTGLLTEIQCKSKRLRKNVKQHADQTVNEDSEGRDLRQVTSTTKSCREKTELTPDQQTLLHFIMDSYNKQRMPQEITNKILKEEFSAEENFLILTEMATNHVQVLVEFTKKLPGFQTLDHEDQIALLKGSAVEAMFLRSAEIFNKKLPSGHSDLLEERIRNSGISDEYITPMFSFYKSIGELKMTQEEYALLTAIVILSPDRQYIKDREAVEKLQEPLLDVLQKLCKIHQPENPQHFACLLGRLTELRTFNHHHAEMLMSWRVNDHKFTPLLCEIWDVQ
PROCEDURE_DETAILS: NVS_NR_hFXR_Antagonist: NovaScreen (NVS) Nuclear Receptor Binding Assay for human Farnesoid X Receptor Antagonism (FXR) (AID 2283350)
Results filed as inconclusive are left out. The source made the active and inactive calls. The calls were made as follows: active = hit-call score of the fitted dose curve at least 0.9, where 1 is the maximum; inconclusive = response in the unintended direction; inactive = score below 0.9.
Please answer using one outcome listed in true (1) (active), false (0) (inactive)

// param item: "COC(=O)c1cccc(C)c1S(=O)(=O)NC(=O)Nc1nc(OCC(F)(F)F)nc(N(C)C)n1" ; yields the recorded call
false (0)

Please indicate how the test categorized "COC(=O)c1ccccc1S(=O)(=O)NC(=O)Nc1nc(OC(F)F)cc(OC(F)F)n1" .
false (0)

What was the test verdict on "N#CSCSc1nc2ccccc2s1" ?
true (1)

Query: recorded result category for "CCN(CC)C(=O)c1cccc(C)c1" in this test
false (0)

###

PROCEDURE_DETAILS: ATG_NF_kB_CIS: Attagene CIS-FACTORIAL HepG2 Assay for human Nuclear Factor Kappa B (NF-kB) (AID 2282991)
SETTINGS: HepG2 Attagene cis-factorial NF-kB reporter mRNA; actives raise or lower the signal
Protocol: ATG_CIS is a cell-based, multiplexed-readout assay that uses HepG2, a human liver cell line, with measurements taken at 24 hours after chemical dosing in a 24-well plate.ATG_NF_kB_CIS is one of 52 assay component(s) measured or calculated from the ATG_CIS assay. […] This assay endpoint, ATG_NF_kB_CIS, was analyzed with bidirectional fitting relative to DMSO as the negative control and baseline of activity. […]
Calls of active or inactive are those of the source. Rule for the calls: active = hit-call score of the fitted dose curve at least 0.9, where 1 is the maximum; inactive = score below 0.9.
Respond using exactly one of the listed classes: t (active), f (inactive)

Field: outcome | Entry: "O=C(O)C1(C(=O)Nc2ccc(Cl)cc2Cl)CC1"
f

Kindly provide the recorded test outcome for the following compound: CCCCCCC(C)OC(=O)COc1nc(F)c(Cl)c(N)c1Cl (centres undefined)
f

What classification did CCCCOC(=O)C(C)Oc1ccc(Oc2ccc(C(F)(F)F)cn2)cc1 (centres undefined) end up with in this test?
f

Tell me the assay call for "O=C(Nc1ccc([N+](=O)[O-])cc1Cl)c1cc(Cl)ccc1O" please.
t

How was C[C@]12CC[C@@H]3c4ccc(O)cc4C[C@@H](CCCCCCCCCS(=O)CCCC(F)(F)C(F)(F)F)[C@H]3[C@@H]1CC[C@@H]2O (some centres undefined) classified in this test?
f

For "CCNc1nc(N)nc(Cl)n1" , what call appears in the results of this test?
f

Please state the recorded outcome for this compound: "CCCOC(=O)c1ccc(C(=O)OCCC)nc1"
f

Short answer needed: outcome of this test for "COC(=O)c1c(Cl)nn(C)c1S(=O)(=O)NC(=O)Nc1nc(OC)cc(OC)n1" ?
f

Each compound tested received a call. Report the one for "CCSC(=O)N(CC(C)C)CC(C)C" .
f

What did the test return for "CCCCOC(=O)[C@@H](C)Oc1ccc(Oc2ccc(C(F)(F)F)cn2)cc1" ?
f

Identify the outcome logged in this assay for the compound shown: "CC(C)(C)[C@@H](O)[C@@H](Cc1ccc(Cl)cc1)n1cncn1"
f

Identify the outcome logged in this assay for the compound shown: CCCCC(CC)CN1C(=O)C2C3C=CC(C3)C2C1=O (centres undefined)
f

Per the records of this test, what outcome belongs to "c1ccc(Nc2ccccc2)cc1" ?
f

What is the recorded call for this compound in the test? "c1ccc2[nH]c(-c3cscn3)nc2c1"
f

Field: outcome | Entry: "C[C@]12C[C@H](O)[C@H]3[C@@H](CCC4=CC(=O)CC[C@@]43C)[C@@H]1CC[C@@H]2C(=O)CO"
f

State the result this test recorded for "COc1nc(C)nc(NC(=O)NS(=O)(=O)c2ccccc2OCCCl)n1" .
f

So what was the verdict on "CCOC(=O)NCCOc1ccc(Oc2ccccc2)cc1" in this test?
f

What was the test verdict on "COC(=O)c1ccccc1C(=O)O" ?
f

Any idea what this test logged for "CCN(Cc1c(F)cccc1Cl)c1c([N+](=O)[O-])cc(C(F)(F)F)cc1[N+](=O)[O-]" ?
f
